# Test system: ACHN
# experiment summary: Cancer cell panel, cell viability (resazurin): Renal, ACHN
# Type: cell-based
# condition summary: Homo sapiens, 72 hours, single agent, read-out: Example 3 IC50
quantity measured: IC50 (nM)
The answer is to be given in nM; state only the numeric part.

Measured IC50, C[S@+]([O-])Cc1cc(Nc2cc(NC3CC3)n3ncc(C#N)c3n2)ccc1Cl : 409

* * *

Where a name gives a salt, the structure may show the parent alone.
Form field: melting point (one value per entry).

# count of solved cases: 4
C[S+]([O-])Cc1cc(Nc2cc(NC3CC3)n3ncc(C#N)c3n2)ccc1C1CCNC1 (racemic) (as salt: trifluoroacetic acid salt) [Example 63, mono trifluoroacetic acid salt]    173 to 177 °C
COc1ccc(Nc2cc(NC3CC3)n3ncc(C#N)c3n2)cc1C[S+](C)[O-] (racemic)    227 to 229 °C
C/C(=C\CN)c1ccc(Nc2cc(NC3CC3)n3ncc(C#N)c3n2)cc1C[S+](C)[O-] (racemic) (as salt: trifluoroacetic acid salt) [Example 60, mono trifluoroacetic acid salt]    249 to 253 °C
CN(CCN)c1ccc(Nc2nc(NC3CC3)c3ncc(C#N)n3n2)cc1CS(C)(=O)=O (as salt: trifluoroacetic acid salt) [Example 50, mono trifluoroacetic acid salt]    113 to 117 °C

Continue with the next molecule.
Measured melting point, CN(CCN)c1ccc(Nc2nc(NC3CC3)n3ncc(C#N)c3n2)cc1C[S+](C)[O-] (racemic) (as salt: trifluoroacetic acid salt) [Example 51, mono trifluoroacetic acid salt] : 78 to 82 °C

* * *

# Tested on: WM-115
# experiment summary: Cancer cell panel, cell viability (resazurin): Melanoma, WM-115
# Type: cell-based
# condition summary: Homo sapiens; WM-115 (Melanoma), 72 hours, single agent; read-out: Example 3 IC50
quantity measured: IC50 (µM)
The answer is to be given in µM; state only the numeric part.

Form field, IC50 with WM-115, item C[S@+]([O-])Cc1cc(Nc2cc(NC3CC3)n3ncc(C#N)c3n2)ccc1Cl [Example 3] : 0.286

* * *

# Tested on: BT-20
# experiment summary: Cancer cell panel, cell viability (resazurin): Breast, BT-20
# Format: cell-based
# condition summary: Homo sapiens; BT-20 (Breast), 72 hours, single agent; read-out: Example 3 IC50
quantity measured: pIC50
Would you please state pIC50, meaning minus log10 of the concentration in mol/L, as a bare number?

Form field, pIC50 with BT-20, item C[S@+]([O-])Cc1cc(Nc2cc(NC3CC3)n3ncc(C#N)c3n2)ccc1Cl [Example 3] : 7.01

* * *

# Tested on: SK-MEL-24
# experiment summary: Cancer cell panel, cell viability (resazurin): Melanoma, SK-MEL-24
# Type: cell-based
# condition summary: Homo sapiens; SK-MEL-24 (Melanoma), 72 hours, single agent; read-out: Example 3 IC50
quantity measured: IC50

Form field, IC50 with SK-MEL-24, item C[S@+]([O-])Cc1cc(Nc2cc(NC3CC3)n3ncc(C#N)c3n2)ccc1Cl : 1410 nM

* * *

# system under test: purified CK2α enzyme (Homo sapiens, UniProt P68400)
# Sequence (P68400 whole entry): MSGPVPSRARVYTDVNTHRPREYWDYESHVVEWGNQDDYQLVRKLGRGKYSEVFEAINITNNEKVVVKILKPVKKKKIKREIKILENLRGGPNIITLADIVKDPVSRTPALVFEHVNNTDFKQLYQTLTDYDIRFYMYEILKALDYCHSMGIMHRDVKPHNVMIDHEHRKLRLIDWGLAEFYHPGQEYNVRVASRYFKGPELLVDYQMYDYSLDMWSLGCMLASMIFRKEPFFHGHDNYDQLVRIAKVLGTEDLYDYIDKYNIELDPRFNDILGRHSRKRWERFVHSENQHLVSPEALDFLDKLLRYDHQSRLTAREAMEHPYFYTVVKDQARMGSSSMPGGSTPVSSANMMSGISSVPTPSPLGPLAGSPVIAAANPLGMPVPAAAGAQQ
Counter-ions that a name gives are not always drawn.
Form field: Ki (one value per entry).

# count of solved cases: 4
C[S+]([O-])Cc1cc(Nc2cc(NC3CC3)n3ncc(C#N)c3n2)ccc1OCC1(N)CC1 (racemic) [Example 28, mono trifluoroacetic acid salt]    2.5 to 10 nM
C[S+]([O-])Cc1cc(Nc2cc(NC3CC3)n3ncc(C#N)c3n2)ccc1Cl (racemic)    < 2.5 nM
CN(CCN)c1ccc(Nc2cc(NC3CC3)c3ncc(C#N)n3n2)cc1C[S+](C)[O-] (racemic) [Example 47, mono trifluoroacetic acid salt]    2.5 to 10 nM
C[S+]([O-])Cc1cc(Nc2cc(NC3CC3)n3ncc(C#N)c3n2)ccc1C1CC1 (racemic)    < 2.5 nM

Measured Ki, CS(=O)(=O)Cc1cc(Nc2cc(NC3CC3)n3ncc(C#N)c3n2)ccc1N1CC[C@H](N)C1 [Example 29, mono trifluoroacetic acid salt] : < 2.5 nM

Measured Ki, C[S+]([O-])Cc1cc(Nc2cc(NC3CC3)n3ncc(C#N)c3n2)ccc1C1CCCNC1 (racemic) [Example 61, mono trifluoroacetic acid salt] : 2.5 to 10 nM

Measured Ki, C[S+]([O-])Cc1cc(Nc2cc(NC3CC3)n3ncc(C#N)c3n2)ccc1N1CCNCC1 (racemic) [Example 14, mono trifluoroacetic acid salt] : 2.5 to 10 nM

* * *

Where a name gives a salt, the structure may show the parent alone.
quantity measured: melting point

# count of solved cases: 6
CN(CCN)c1ccc(Nc2nc(NC3CC3)n3ncc(C#N)c3n2)cc1CS(C)(=O)=O (as salt: trifluoroacetic acid salt) [Example 52, mono trifluoroacetic acid salt]    55 to 59 °C
C[S+]([O-])Cc1cc(Nc2cc(NC3CC3)n3ncc(C#N)c3n2)ccc1C1(N)CC1 (racemic) (as salt: trifluoroacetic acid salt) [Example 59, mono trifluoroacetic acid salt]    185 to 189 °C
CN(CC1(N)CC1)c1ccc(Nc2cc(NC3CC3)n3ncc(C#N)c3n2)cc1C[S+](C)[O-] (racemic) (as salt: trifluoroacetic acid salt) [Example 65, mono trifluoroacetic acid salt]    126 to 130 °C
CN(CCN)c1ccc(Nc2cc(NC3CC3)c3ncc(C#N)n3n2)cc1C[S+](C)[O-] (racemic) (as salt: trifluoroacetic acid salt) [Example 47, mono trifluoroacetic acid salt]    91 to 94 °C
CN(CCN)c1ccc(Nc2cc(NC3CC3)c3ncc(C#N)n3n2)cc1CS(C)(=O)=O (as salt: trifluoroacetic acid salt) [Example 48, mono trifluoroacetic acid salt]    121 to 124 °C
COc1ccc(Nc2cc(NC3CC3)n3ncc(C#N)c3n2)cc1CS(C)(=O)=O    233 to 235 °C

Measured melting point, CS(=O)(=O)Cc1cc(Nc2cc(NC3CC3)n3ncc(C#N)c3n2)ccc1N1CCC1 : 220 to 222 °C

Measured melting point, C[S+]([O-])Cc1cc(Nc2cc(NC3CC3)n3ncc(C#N)c3n2)ccc1OCCN (racemic) : 206 to 208 °C

Measured melting point, C[S+]([O-])Cc1cc(Nc2cc(NC3CC3)n3ncc(C#N)c3n2)ccc1C1CCCNC1 (racemic) (as salt: trifluoroacetic acid salt) [Example 61, mono trifluoroacetic acid salt] : 55 to 59 °C

Measured melting point, C[S+]([O-])Cc1cc(Nc2cc(NC3CC3)n3ncc(C#N)c3n2)ccc1N1CCC1 (racemic) : 204 to 207 °C

Measured melting point, CN(CC1(N)CC1)c1ccc(Nc2cc(NC3CC3)n3ncc(C#N)c3n2)cc1CS(C)(=O)=O (as salt: trifluoroacetic acid salt) [Example 66, mono trifluoroacetic acid salt] : 185 to 189 °C

* * *

# System: PC3
# experiment summary: Cancer cell panel, cell viability (resazurin): Prostate, PC3
# Type: cell-based
# condition summary: Homo sapiens, PC-3, 72 hours, single agent, read-out: Example 3 IC50
quantity measured: pIC50
Would you please state pIC50, meaning minus log10 of the concentration in mol/L, as a bare number?

Form field, pIC50 with PC3, item C[S@+]([O-])Cc1cc(Nc2cc(NC3CC3)n3ncc(C#N)c3n2)ccc1Cl : 6.95

* * *

# Tested on: Daudi
# experiment summary: Cancer cell panel, cell viability (resazurin): Burkitt's Lymphoma, Daudi
# Type: cell-based
# condition summary: Homo sapiens, 72 hours, single agent, read-out: Example 3 IC50
quantity measured: pIC50
Would you please state pIC50, meaning minus log10 of the concentration in mol/L, as a bare number?

Measured pIC50, C[S@+]([O-])Cc1cc(Nc2cc(NC3CC3)n3ncc(C#N)c3n2)ccc1Cl : 6.66

* * *

Where a name gives a salt, the structure may show the parent alone.
Form field: melting point (one value per entry).

C[S+]([O-])Cc1cc(Nc2cc(NC3CC3)n3ncc(C#N)c3n2)ccc1OC(F)F (racemic) [Example 19]    233 to 235 °C
CN(C)c1ccc(Nc2cc(NC3CC3)n3ncc(C#N)c3n2)cc1C[S+](C)[O-] (racemic) [Example 33]    229 to 233 °C

Continue with the next compound.
Measured melting point, CC(N)c1ccc(Nc2cc(NC3CC3)n3ncc(C#N)c3n2)cc1C[S+](C)[O-] (racemic) (as salt: trifluoroacetic acid salt) [Example 58, mono trifluoroacetic acid salt] : 161 to 165 °C

* * *

# Tested on: Caki-1
# experiment summary: Cancer cell panel, cell viability (resazurin): Renal, Caki-1
# Assay type: cell-based
# condition summary: Homo sapiens; Caki-1 (Renal), 72 hours, single agent; read-out: Example 3 IC50
quantity measured: IC50 (µM)
The answer is to be given in µM; state only the numeric part.

Measured IC50, C[S@+]([O-])Cc1cc(Nc2cc(NC3CC3)n3ncc(C#N)c3n2)ccc1Cl : 0.171

* * *

Counter-ions that a name gives are not always drawn.
quantity measured: melting point

C[S+]([O-])Cc1cc(Nc2cc(NC3CC3)n3ncc(C#N)c3n2)ccc1C1=CCNC1 (racemic) (as salt: trifluoroacetic acid salt) [Example 62, mono trifluoroacetic acid salt]    147 to 151 °C
CN(CC(C)(C)N)c1ccc(Nc2cc(NC3CC3)n3ncc(C#N)c3n2)cc1C[S+](C)[O-] (racemic) (as salt: trifluoroacetic acid salt) [Example 67, mono trifluoroacetic acid salt]    141 to 145 °C
CN(CCN)c1ccc(Nc2nc(NC3CC3)c3ncc(C#N)n3n2)cc1C[S+](C)[O-] (racemic) (as salt: trifluoroacetic acid salt) [Example 49, mono trifluoroacetic acid salt]    93 to 97 °C

Measured melting point, CS(=O)(=O)Cc1cc(Nc2cc(NC3CC3)n3ncc(C#N)c3n2)ccc1OCCN.Cl : 238 to 240 °C
